Reference source: patent US5622962A

Target: Type I 5α-Reductase from Human Scalp (Homo sapiens, UniProt P18405)
Construct: Scalp punch biopsies from graft recipient sites were obtained from human hair transplant procedures; from tissue; host or cells: human scalp punch biopsies (hair transplant graft recipient sites), homogenate, 100,000×g pellet
Sequence (P18405 1-259): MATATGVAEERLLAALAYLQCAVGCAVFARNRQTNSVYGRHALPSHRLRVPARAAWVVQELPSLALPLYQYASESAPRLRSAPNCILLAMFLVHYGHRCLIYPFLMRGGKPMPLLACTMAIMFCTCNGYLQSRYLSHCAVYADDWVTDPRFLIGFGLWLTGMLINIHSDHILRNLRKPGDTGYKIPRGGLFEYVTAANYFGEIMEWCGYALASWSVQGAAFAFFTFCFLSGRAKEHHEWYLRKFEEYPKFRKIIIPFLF
Assay: Human Type I 5α-reductase assay (conversion of [3H]-testosterone to 5α-reduced metabolites)
Format: biochemical
Conditions: 0.3 μM; 50 nM [3H]-testosterone, pH 7.5, 25°, 180 min; compared to control reaction mixtures
OUTCOME_MEASURE: percent inhibition of Type I AR (%)

Some compounds with recorded percent inhibition of Type I AR:
INSERT INTO assay_data (smiles_text, outcome_measure, output_unit, endpoint_result) VALUES
  ('CN1C(=O)CC[C@]2(C)c3ccc(-c4ccc(Cl)cc4)cc3CC[C@@H]12', 'percent inhibition of Type I AR', '%', 94),
  ('Cc1cccc2sc(Sc3ccc4c(c3)CC[C@H]3N(C)C(=O)CC[C@]43C)nc12', 'percent inhibition of Type I AR', '%', 87);

I. CN1C(=O)CC[C@]2(C)c3ccc(-c4cc(F)c(F)c(F)c4)cc3CC[C@@H]12
II. C[C@]12CCC(=O)N[C@@H]1CCc1cc(-c3cnc4ccccc4c3)ccc12
Looking at I and II , which one comes out lower in percent inhibition of Type I AR terms? Identify your pick by its label.
II
(II: 11%, I: 100%)
